Mite Adult rating overview
# System: adults and nymphal stages of the two-spotted mite
# Procedure Text: Mite Foliage Spray Test
# Format: in vivo, Tetranychus urticae (Koch)
# Design: key: 1: no mortality; 3: an approximately 50% mortality; 5: 100% mortality
# Experimental Conditions: 4 days

| Molecule | Tested Target | Mite Adult rating |
| --- | --- | --- |
| CCCCCCCCCCCCCCCCCC(=O)OC1=C(c2ccccc2)C(=O)c2ccccc21 [2-Phenyl-3-(stearoyloxy)indone] | adults and nymphal stages of the two-spotted mite | 1 |

Entry under test: CCCCCCCCCCCCC(=O)OC1=C(c2cc(C)ccc2C)C(=O)c2ccccc21 . Its Mite Adult rating was 1

Numbers sourced from patent US4091006A.
